Data credit: PubChem BioAssay

I'd appreciate it if you could supply inhibition values for the items below.
system-name: Botulinum neurotoxin type A (Clostridium botulinum) (UniProt P0DPI0)
measurement-protocol: BoNT/A light chain protease inhibitors, biochemical, multiplex microsphere flow cytometry, validation set (AID 588460)
condition-details: at 10 µM, stronger effect = higher value
One number for each entry, in %.

Consider the worked cases shown below.
Exercise: Which inhibition is reported with Botulinum neurotoxin type A (Clostridium botulinum) (UniProt P0DPI0) for this entry: CC(C)C[C@H](NC(=O)NC(C)C)C(=O)O ?
Key: 0

Exercise: Now try COC(=O)c1ccccc1NC(=O)c1ccc(COc2ccc3c(c2)CCC3)cc1 .
Key: -0.5

Exercise: Another molecule to look at: Cc1nc2sccn2c(=O)c1CCN1CCC(=C(c2ccc(F)cc2)c2ccc(F)cc2)CC1
Key: -0.2

Exercise: How about this molecule: CC[C@]1(O)CC2CN(CCc3c([nH]c4ccccc34)[C@@](C(=O)OC)(c3cc4c(cc3OC)N(C=O)[C@H]3[C@@](O)(C(=O)OC)[C@H](OC(C)=O)[C@]5(CC)C=CCN6CC[C@]43[C@@H]65)C2)C1 (some centres not stated)
Key: 0

Exercise: Next entry: COc1cc(CNCCc2ccccc2F)ccc1OCC(=O)N1CCCCC1
Key: -0.1

Take each entry in turn and give its inhibition.
1. O=C1OC(Nc2ccc3c(c2)OCO3)c2ccccc21 (configuration not stated)
2. CCn1c(=N)c(C(=O)NC)cc2c(=O)n3cccc(C)c3nc21
3. C#CCN(C)C(C)Cc1ccccc1 (configuration not stated)
4. CC(C)Oc1ccc(C(CC(=O)O)c2ccc(F)cc2)cc1 (configuration not stated)

Key:
-1.8
3.8
-0.6
2

----------
system-name: Beta-adrenergic receptor kinase 1 (Homo sapiens)
measurement-protocol: GRK2 binders displacing RNA aptamer, biochemical, validation, human GRK2, bead flow cytometry (AID 488806)
condition-details: bead-bound GRK2, FAM-aptamer displacement, at 10 µM
The source made the active and inactive calls.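 The calls were made as follows: active = aptamer binding inhibition above 30%, about 3 SD of noise from non-fluorescent compounds; inactive = inhibition at or below 30%.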
Respond using exactly one of the listed classes: active, inactive

Take a look at these entries with their results.
Exercise: State the result this test recorded for CC12CC[C@H]3[C@@H](CCC4(O)C[C@H](O)CCC34/C=N/NC(=O)Cc3ccccc3)C1(O)CCC2C1=CC(=O)OC1 (some centres not stated) .
Key: inactive

Exercise: Try this molecule next: CN1C(=O)CN=C(c2ccc(Cl)cc2)c2cc(Cl)ccc21
Key: inactive

Exercise: Try the molecule OCc1cnc[nH]1
Key: inactive

Now consider a different molecule.
Exercise: What was the test verdict on C[C@H]1OC[C@@H](C[N+](C)(C)C)O1 ?
Key: inactive

----------
system-name: Lethal factor (Bacillus anthracis) (UniProt P15917)
measurement-protocol: Lethal factor protease inhibitors, Bacillus anthracis, multiplex microsphere cleavage assay, validation set (AID 588461)
condition-details: flow cytometry, at 10 µM, stronger effect = higher value
Give measured inhibition for each item. Keep answers brief.
Numbers only, in %.

Exercise: Please report the recorded inhibition for COC(=O)C1=CN(Cc2cccs2)C=C(C(=O)OC)C1c1cccc(Cl)c1 .
Key: -4

Exercise: Another compound to check: COc1ccc(N2C(=O)C3C(C2=O)C(C(=O)c2ccccc2)N2CCCC32)cc1 (stereo unspecified)
Key: -3.5

Exercise: Query CC(=O)N1c2ccccc2C(C)=CC1(C)C next
Key: -8.5

Exercise: Try this compound too: COc1ccc(/C=C/C(=O)c2cc3cccc(OC)c3oc2=O)cc1
Key: 8.8

Exercise: Now give it for Cn1c(=O)[nH]c(=O)c2c1nc(Br)n2CCCO too.
Key: -5.7

Now examine the next entry.
Exercise: Endpoint output: inhibition of CCOc1cc(C=O)ccc1OCCSc1ccc(C)cc1 . Value?
Key: -3.6

----------
system-name: GTPase HRas (Homo sapiens) (UniProt P01112)
Sequence (P01112 whole entry, looked up): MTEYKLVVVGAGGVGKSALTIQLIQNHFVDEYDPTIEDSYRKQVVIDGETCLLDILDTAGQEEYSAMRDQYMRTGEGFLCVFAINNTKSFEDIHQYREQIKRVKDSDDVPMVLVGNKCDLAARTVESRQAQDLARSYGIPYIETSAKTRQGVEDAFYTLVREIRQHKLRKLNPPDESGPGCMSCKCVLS
measurement-protocol: inhibitors of GTP binding to wildtype Ras, dose response, biochemical, multiplex bead flow cytometry (AID 1335)
condition-details: bead-based flow cytometry, Bodipy-GTP binding to GST-Ras; at 100 µM (top of the series)
parameter: GTP binding, percent of control

Consider the reported GTP binding, percent of control for these compounds:
Exercise: For the compound shown here, CC1(C)CC(n2[nH]c(=O)c3c2NC(=O)CSC3c2ccccc2)CCO1 (stereo unspecified) , give the reported GTP binding, percent of control.
Key: 86.2%

Exercise: Another compound: CCOC(=O)c1c(NC(=O)c2c(N)n(CCCOC)c3nc4ccccc4nc23)sc2c1CCCC2
Key: 144%

Exercise: Then what about the compound CCCCN1C(=O)/C(=C\c2ccco2)C(=O)N(CCc2ccccc2)C1=O ?
Key: 131%

Exercise: Let us now turn to Cc1ccc(-n2c(O)c(/C=N/c3ncc(Br)cc3Br)c(=O)[nH]c2=O)cc1
Key: 116%

Exercise: COc1ccc(-c2cc(=NCCCCCC(=O)O)c3cc(C)ccc3o2)cc1 ?
Key: 66.2%

---
Exercise: Could you share which GTP binding, percent of control value was measured for O=c1[nH]c(=S)[nH]c(O)c1N=Nc1cc2c(cc1[N+](=O)[O-])OCO2 ?
Key: 66.6%

----------
system-name: Lethal factor (Bacillus anthracis) (UniProt P15917)
measurement-protocol: Lethal factor protease inhibitors, Bacillus anthracis, multiplex microsphere cleavage assay, validation set (AID 588461)
condition-details: flow cytometry, at 10 µM, stronger effect = higher value
Activity calls are given as the source filed them. The rule behind the calls is not given here.
Please go through the items and note down their inhibition.

Study these solved cases before continuing.
Exercise: Record request: inhibition value, item COc1ccccc1N=CC1=C(O)CC(c2ccccc2)CC1=O (stereo not drawn)
Key: -5% (inactive)

Exercise: Another compound to check: O=C(O)c1ccccc1Nc1cccc(C(F)(F)F)c1
Key: 1.9% (inactive)

The record that follows has no inhibition shown yet.
Exercise: # input compound: COc1cc(CNc2ccc(C)c(C)c2)cc(OC)c1OC ; wanted: its inhibition
Key: -8.9% (inactive)

----------
system-name: Botulinum neurotoxin type A (Clostridium botulinum)
measurement-protocol: BoNT/A light chain protease inhibitors, biochemical, multiplex microsphere flow cytometry, validation set (AID 588460)
condition-details: at 10 µM, stronger effect = higher value
The source made the active and inactive calls. The rule behind the calls is not given here.
parameter: inhibition

Previously resolved entries follow.
Exercise: Which measured inhibition value corresponds to CC(NC(=O)OCc1ccccc1)C(=O)N1CC(O)CC1C(=O)O (stereo not given) ?
Key: -0.7% (inactive)

Exercise: Do the same for COc1ccc(-c2coc3cc(OC(=O)N4CCOCC4)ccc3c2=O)cc1 please
Key: -1.4% (inactive)

List inhibition for every entry below, keeping the order given.
1. COc1ccc(S(=O)(=O)NCc2ccco2)c2ccccc12
2. CC(C)COCC(CN(Cc1ccccc1)c1ccccc1)N1CCCC1 (stereo not given)

Key:
0.4% (inactive)
-1.8% (inactive)

The following compounds each have a reported value; give each one's inhibition.
1. C#C[C@]1(O)CC[C@H]2[C@@H]3CCc4cc(O)ccc4[C@H]3CC[C@@]21C
2. CC[n+]1ccc2cc(OC)c(OC)cc2c1Cc1ccc(OC)c(OC)c1
3. CC1=C/C(=N\N=C2\NC(=O)C(CC(=O)Nc3ccccc3F)S2)CC(C)(C)C1 (stereo not given)
4. O=C1CC[C@@H](CN(Cc2ccccc2)Cc2cn[nH]c2-c2cc3ccccc3o2)N1
5. CCSC(=O)CCCCCCCCCCCO

Key:
-2.8% (inactive)
0.7% (inactive)
0.8% (inactive)
1.2% (inactive)
1.5% (inactive)

For each listed entry, give its inhibition.
1. Cc1ccc(C(=O)COC(=O)c2cccc(N3C(=O)c4c(C)nc5ccccc5c4C3=O)c2)cc1C
2. O=C(O)Cc1ccc(O)c(F)c1
3. O=C(CCSc1ccccc1)N1CCCC1
4. CCc1nc2ccccc2n1Cc1ccc(OC)c(OC)c1
5. C[C@H]1CCC/C=C/C2C[C@H](O)CC2[C@H](O)/C=C/C(=O)O1 (stereo not given in full)
6. CC(NC(=O)c1ccc(OC2CCN(Cc3ccccn3)CC2)cc1)c1ccccc1 (stereo not given)

Key:
1. -1.1% (inactive)
2. -0.5% (inactive)
3. -0.9% (inactive)
4. 0.6% (inactive)
5. -0.8% (inactive)
6. 0.5% (inactive)

// each compound listed below needs its inhibition
1. CC(=O)N1CCN(c2ccc(NC(=O)/C=C/c3ccccc3)cc2)CC1
2. NS(=O)(=O)c1cc2c(cc1Cl)NCNS2(=O)=O
3. CCOc1cc2c(cc1OCC)C(c1ccccc1)N(c1ccc(C(=O)O)cc1)C(=O)C2 (stereo not given)
4. CC(C)[N+]1(C)[C@@H]2CC[C@H]1CC(OC(=O)C(CO)c1ccccc1)C2 (stereo not given in full)
5. Cn1nnnc1SCC1=C(C(=O)O)N2C(=O)[C@@H](NC(=O)[C@H](O)c3ccccc3)[C@H]2SC1

Key:
["-0.3% (inactive)", "-2.4% (inactive)", "-0.7% (inactive)", "1% (inactive)", "0.9% (inactive)"]
